Values compiled from patent US11771738B2.

test system: D. immitis L4 larvae; assay: Dirofilaria immitis, L4 Stage (DiL4) In Vitro Assay; assay type: cell-based; details: larval stage selectivity, ratio of DiMf MED to DiL4 MED
DiMf/DiL4 for assorted molecules
Experimental readout: DiMf/DiL4

Cc1noc(C)c1Cc1ccc(C[C@H]2OC(=O)[C@H](CC(C)C)N(C)C(=O)[C@@H](C)OC(=O)[C@H](CC(C)C)N(C)C(=O)[C@@H](Cc3ccccc3)OC(=O)[C@H](CC(C)C)N(C)C(=O)[C@@H](C)OC(=O)[C@H](CC(C)C)N(C)C2=O)cc1: 2.5
CC(C)C[C@H]1C(=O)O[C@H](Cc2ccc(Cc3cc(C4CC4)no3)cc2)C(=O)N(C)[C@@H](CC(C)C)C(=O)O[C@H](C)C(=O)N(C)[C@@H](CC(C)C)C(=O)O[C@H](Cc2ccc(Cc3cc(C4CC4)no3)cc2)C(=O)N(C)[C@@H](CC(C)C)C(=O)O[C@H](C)C(=O)N1C: 200
COc1ncc(F)cc1Cc1ccc(C[C@H]2OC(=O)[C@H](CC(C)C)N(C)C(=O)[C@@H](C)OC(=O)[C@H](CC(C)C)N(C)C(=O)[C@@H](Cc3ccc(Cc4cc(F)cnc4OC)cc3)OC(=O)[C@H](CC(C)C)N(C)C(=O)[C@@H](C)OC(=O)[C@H](CC(C)C)N(C)C2=O)cc1: 167
COc1ncc(Cl)cc1Cc1ccc(C[C@H]2OC(=O)[C@H](CC(C)C)N(C)C(=O)[C@@H](C)OC(=O)[C@H](CC(C)C)N(C)C(=O)[C@@H](Cc3ccc(Cc4cc(Cl)cnc4OC)cc3)OC(=O)[C@H](CC(C)C)N(C)C(=O)[C@@H](C)OC(=O)[C@H](CC(C)C)N(C)C2=O)cc1: 548
